The molecules below each have a reported IC50 tested on IRAK4 (Homo sapiens (Human)); the values come from various publications.
measurement.label: IC50

>>> obs_value("CN(CCC#N)c1nc(-c2cccc(-c3cnn(C)c3)c2)ncc1-c1cnn(C)c1")
"100 to 1000 nM"
>>> obs_value("CO[C@H]1CC[C@H](Nc2cc(-c3cnn4cc(Cl)cnc34)ncc2C(=O)NC[C@@H](F)C(C)(C)O)CC1")
"6 nM"
>>> obs_value("NC(c1cccc(-c2ccc3cnn(-c4cccc(CO)n4)c3c2)n1)C1CCC(O)C1 (single isomer, unassigned)")
"≤ 100 nM"
>>> obs_value("CN(CC(=O)N1CCCC1)[C@H]1CC[C@H](Oc2ncnc3sc4c(c23)[C@@H](C[C@H](O)C(N)=O)CC4)CC1")
"< 5000 nM"

----------
The molecules below each have a reported IC50 tested on IRAK4 (Homo sapiens (Human)); the values come from various publications.
I'd appreciate it if you could label each record using IC50 and these ranges: class 0 = under 4 nM, class 1 = from 4 nM up to 8 nM, class 2 = 8 nM and over

>>> assigned_label("CC(F)CCNc1cc(-c2cnn3cc(Cl)cnc23)ncc1C(=O)NC[C@@H](F)C(C)(C)O (some centres unmarked)")
"class 1"
>>> assigned_label("CC(C)Nc1c(-c2cn(CC3CC3)nn2)cnc2sc(-c3cncs3)cc12")
"class 2"
>>> assigned_label("CC(=O)c1cccc(-c2ccc3cnn(-c4cccc(C#N)n4)c3c2)n1")
"class 2"
>>> assigned_label("CC(C)(O)[C@H](F)CNC(=O)c1cnc(Nc2ccc3ncsc3c2)cc1NC1CCC(F)C1 (single isomer, unassigned)")
"class 0"
>>> assigned_label("OC[C@H]1C[C@@H](Nc2nc(NC3CCCC3)ncc2-c2nc3ccccc3s2)[C@H](O)[C@@H]1O")
"class 2"
>>> assigned_label("CC(C)Nc1cc(-n2ccc3cncnc32)ncc1-c1cn(CCO)nn1")
"class 1"
>>> assigned_label("CCc1nc2c(O[C@H]3CC[C@H](N(C)C)CC3)ncnc2s1")
"class 2"
>>> assigned_label("COc1cc(OC)cc(-c2cn(-c3cnc(-n4ncc5cc(C#N)cnc54)cc3NC(C)C)nn2)c1")
"class 2"
>>> assigned_label("CC(C)(O)[C@H](F)CNC(=O)c1cnc(-c2ccc3cc(C#N)cnn23)cc1NC12CCC(c3nnc(C(F)F)o3)(CC1)OC2")
"class 0"
>>> assigned_label("CCn1cc([C@H]2CC[C@H](Nc3cc(-c4ccc5cc(C#N)cnn45)ncc3C(=O)NC[C@@H](F)C(C)(C)O)CC2)cn1")
"class 0"
>>> assigned_label("CC(C)Nc1cc(-c2ccc3cc(C#N)cnn23)ncc1-c1cn(C2COC2)nn1")
"class 0"
>>> assigned_label("COc1cc2nn(C3CCOCC3)cc2cc1NC(=O)c1cccc(C(F)(F)F)n1")
"class 0"
>>> assigned_label("CC(F)CNc1cc(Nc2ccc3ncsc3c2)ncc1C(=O)NC[C@@H](F)C(C)(C)O (some centres unmarked)")
"class 1"
>>> assigned_label("CCCn1cc(-c2cnc(-n3cnc4cc(C#N)cnc43)cc2NC2CC2)nn1")
"class 1"
>>> assigned_label("CC(O)CCNC(=O)c1cnc2ccc(-c3cn[nH]c3)cc2c1NC(C)C (centres unmarked)")
"class 2"
>>> assigned_label("Nc1ncc(-c2nccs2)c(N[C@@H]2C[C@H](CO)[C@@H](O)[C@H]2O)n1")
"class 2"
>>> assigned_label("CC(C)(O)[C@H](F)CNC(=O)c1cnc(Nc2ccn3nccc3c2)cc1NCCC1CC1")
"class 1"
>>> assigned_label("CNc1cc(-c2ccc3ncnc(N[C@H]4CC[C@H](N5CCO[C@@H](C)C5)CC4)c3c2)cnc1F")
"class 0"
>>> assigned_label("Cc1ncc(/C=C2\\C(=O)Nc3ccc(OC(C)C)cc32)[nH]1")
"class 2"

----------
pIC50: −log10 of the molar value.
The compounds below each have a reported pIC50 tested on IRAK4 (Homo sapiens (Human)); the values come from various publications.
measurement.label: pIC50

>>> obs_value("CC(C)Nc1c(C(=O)NC[C@@H](F)C(C)(C)O)cnc2sc(-c3cccnc3)nc12")
7.92
>>> obs_value("CC[C@H](C#N)Nc1cc(-c2ccc3cc(C#N)cnn23)ncc1C(=O)NC[C@@H](F)C(C)(C)O")
9.00
>>> obs_value("Cc1cc2nc(Nc3cc(NC4CCC(F)C4)c(C(=O)NC[C@@H](F)C(C)(C)O)cn3)ccn2n1 (stereo partly shown)")
8.13
>>> obs_value("CC(C)Nc1cc(-n2ncc3cc(C#N)cnc32)ncc1-c1cn([C@H](C)[C@H](C)O)nn1 (single isomer, unassigned)")
8.30

----------
The compounds below each have a reported pIC50 tested on IRAK4 (Homo sapiens (Human)); the values come from various publications.
pIC50: −log10 of the molar value.
measurement.label: pIC50

>>> obs_value("Cc1cc(-c2ccc3ncnc(N[C@H]4CC[C@H](N(C)C)CC4)c3c2)cnn1")
7.57
>>> obs_value("CC(C)Nc1cc(-n2ncc3cc(C#N)cnc32)ncc1-c1cn(C2CNC2)nn1")
7.60
>>> obs_value("Cc1ncc([C@H]2CC[C@H](Nc3cc(-c4ccc5cc(C#N)cnn45)ncc3C(=O)NC[C@@H](F)C(C)(C)O)CC2)s1")
9.00
>>> obs_value("CNc1cc(-c2ccc3ncnc(N[C@H]4CC[C@H](N5CCC(F)(F)CC5)CC4)c3c2)cnc1F")
8.70
>>> obs_value("OC[C@H]1C[C@@H](Nc2nc(NC3CCOC3)ncc2-c2nc3ccccc3s2)[C@H](O)[C@@H]1O (mixture of isomers)")
5.80
>>> obs_value("Cc1nnc(-c2ccc3[nH]c4ncnc(N[C@H]5CC[C@H](N6CCOCC6)CC5)c4c3c2)o1")
8.10

----------
The compounds below each have a reported IC50 tested on IRAK4 (Homo sapiens (Human)); the values come from various publications.
measurement.label: IC50

>>> obs_value("CC(C)Nc1c(C(=O)NCCc2ncn[nH]2)cnc2ccc(-c3cn[nH]c3)cc12")
"35.4 nM"
>>> obs_value("Cc1nsc2nc(Nc3cnn(C4CCOCC4)c3)nc(N[C@H]3CC[C@H](N4CCN(C5CC5)CC4)CC3)c12")
"2.4 nM"
>>> obs_value("OC[C@H]1C[C@@H](Nc2nc(Nc3ccccc3O)ncc2-c2nc3ccccc3s2)[C@H](O)[C@@H]1O")
"1240 nM"
>>> obs_value("NC(=O)C[C@H]1CCc2sc3ncnc(O[C@H]4CC[C@H](N5CC6(COC6)C5)CC4)c3c21")
"< 5000 nM"
>>> obs_value("NC(=O)[C@H](O)C[C@H]1CCc2sc3ncnc(O[C@H]4CC[C@H](N5CCCC5)CC4)c3c21")
"< 5000 nM"
>>> obs_value("COc1nc2c(OC[C@@H]3CCC(=O)N3)csc2cc1C(N)=O")
"20.3 nM"
>>> obs_value("CC(C)Nc1cc(Nc2ccc3nnccc3c2)ncc1C(=O)NC[C@@H](F)C(C)(C)O")
"21.7 nM"
>>> obs_value("C[C@@H]1CCC[C@H](C)N1C(=O)CCCc1cn(-c2ccccc2)c(NC(=O)c2cccc(-c3cn[nH]c3)c2)n1")
"< 50 nM"
>>> obs_value("CC1(c2ccc3ncnc(N[C@H]4CC[C@H](N5CCOCC5)CC4)c3c2)CC1")
"52 nM"
>>> obs_value("CC(C)(O)[C@H](F)CNC(=O)c1cnc(Nc2nc3scnc3cc2F)cc1NC1CCCOC1 (some centres unmarked)")
"1.5 nM"
>>> obs_value("CCCn1cc(-c2cnc(-n3cnc4cc(C#N)cnc43)cc2NCC)nn1")
"8 nM"
>>> obs_value("CC(C)Nc1cc(Nc2ccc3ncsc3c2)ncc1C(=O)NC[C@@H](F)C(C)(O)C(F)(F)F (some centres unmarked)")
"6.9 nM"
>>> obs_value("CC(C)(O)[C@H](F)CNC(=O)c1cnc(Nc2ccc3ncccc3n2)cc1NC1CCCC1F (some centres unmarked)")
"5.8 nM"
>>> obs_value("O=C(NCCC1CC1)c1cnc2ccc(-c3cn[nH]c3)cc2c1NCC(F)F")
"20.1 nM"
>>> obs_value("CC(C)Nc1c(C(=O)NCCC(C)(C)O)cnc2ccc(-c3cccnc3)nc12")
"89.8 nM"
>>> obs_value("CC1(C)OC(=O)c2ccc(Nc3ncc(C(=O)NNC(=O)c4cnccn4)c(N[C@H](CO)c4ccccc4)n3)cc21")
"250 to 1000 nM"
>>> obs_value("C#CC(C)(O)c1c[nH]c(=O)c2cc3ccnc(OC[C@@H]4CCC(=O)N4)c3cc12 (some centres unmarked)")
"1210 nM"
>>> obs_value("CC(C)Nc1cc(-n2ncc3cc(C#N)cnc32)ncc1-c1cn(CC(C)(C)O)nn1")
"14 nM"
>>> obs_value("Cc1cccc(-n2ncc3ccc(-c4ccc(F)c(C(C)N)n4)cc32)n1 (centres unmarked)")
"< 100 nM"
>>> obs_value("CCNc1cc(-n2ncc3cc(C#N)cnc32)ncc1-c1cn(C[C@H](C)O)nn1")
"40 nM"
>>> obs_value("Cc1ccc(-n2ncc3ccc(-c4cccc(N)c4)cc32)nc1C")
"1000 to 10000 nM"
>>> obs_value("COc1ccc2c(c1)nc1n2CCn2cc(cn2)-c2ccc(=O)n(n2)Cc2cccc(c2)C(=O)N1")
"< 100 nM"
>>> obs_value("CC(C)(O)[C@H](F)CNC(=O)c1cnc(Nc2nc3ccnn3cc2F)cc1NC1CCCCC1F (some centres unmarked)")
"4.3 nM"
>>> obs_value("COc1ccc(Nc2ncc(-c3nc4ccccc4s3)c(N[C@@H]3C[C@H](CO)[C@@H](O)[C@H]3O)n2)cn1")
"8.2 nM"
>>> obs_value("O=C(N[C@H]1CC[C@H](O)CC1)c1cnc(-c2cnn3cc(Cl)cnc23)cc1Nc1cnn(CC(F)F)c1")
"3 nM"
>>> obs_value("CN(C)[C@H]1CC[C@H](Nc2ncnc3sc4c(c23)C(CC(N)=O)CC4)CC1 (some centres unmarked)")
"< 5000 nM"
>>> obs_value("Cn1cc(-c2cnc(-c3ccc4cc(C#N)cnn34)cc2N[C@H]2CCC[C@@H](O)C2)nn1")
"1 nM"
>>> obs_value("CNc1cncc(-c2ccc3ncnc(N[C@H]4CC[C@H](N5CCC[C@@H](CN6CCOCC6)C5)CC4)c3c2)c1")
"5 nM"
>>> obs_value("COC[C@@H]1CCCN1NC(=O)CCCc1cn(-c2ccccc2)c(NC(=O)c2cccc(-c3cn[nH]c3)c2)n1")
"< 50 nM"
>>> obs_value("CC(C)Nc1c(-c2cn(CCCO)nn2)cnc2ccc(-c3cn[nH]c3)cc12")
"7.8 nM"
>>> obs_value("Cc1cc(-n2cc(Nc3nc(N[C@H]4CC[C@H](O)CC4)c4sccc4n3)cn2)ccn1")
"100 to 1000 nM"
>>> obs_value("CNC(=O)c1csc(Nc2nc(OC3CCOCC3)c3c(ccn3-c3cnn(C)c3)n2)c1")
"≤ 100 nM"
